// provenance: patent US20230257479A1

- target entity: T1, human 5T4ECDHis (mature protein of SEQ ID NO: 99) (human, UniProt Q13641 32-355)
- T1 construct: ECD of human 5T4 (aa 1-355 of Uniprot Q13641) with C-terminal His tag; residues 1-31 are the signal peptide; also called ECD of human 5T4 with a C-terminal His tag
- T1 sequence: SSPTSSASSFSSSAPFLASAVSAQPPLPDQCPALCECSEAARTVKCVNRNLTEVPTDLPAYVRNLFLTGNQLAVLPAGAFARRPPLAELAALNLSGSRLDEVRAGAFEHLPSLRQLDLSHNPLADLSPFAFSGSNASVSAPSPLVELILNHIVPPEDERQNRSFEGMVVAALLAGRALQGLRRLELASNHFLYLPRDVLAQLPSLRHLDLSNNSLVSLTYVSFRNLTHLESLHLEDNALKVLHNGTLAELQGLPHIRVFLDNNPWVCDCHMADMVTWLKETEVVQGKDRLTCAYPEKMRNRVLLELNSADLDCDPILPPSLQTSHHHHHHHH
- experiment description: BLI cross-block; competitor (immobilised): IgG1-5T4-A3-F405L
Criterion: corrected association response strictly less than 0.01 nm. Met: label 1. Not met: label 0.

>  <binder>
IgG1-5T4-A1-F405L (antibody, V domains shown, Variable region of A1 of WO2007106744 in a human IgG1 backbone with F405L; also called surrogate A1 antibody) VH: QIQLVQSGPELKKPGETVKISCKASGYTFTNFGMNWVKQGPGEGLKWMGWINTNTGEPRYAEEFKGRFAFSLETTASTAYLQINNLKNEDTATYFCARDWDGAYFFDYWGQGTTLTVSS VL: SIVMTQTPKFLLVSAGDRVTITCKASQSVSNDVAWYQQKPGQSPKLLINFATNRYTGVPNRFTGSGYGTDFTFTISTVQAEDLALYFCQQDYSSPWTFGGGTKLEIK

>  <label value>
label 0

$$$$
>  <binder>
IgG1-5T4-106-FEAR (antibody, V domains shown, Monospecific, bivalent human IgG1 kappa with L234F, L235E, D265A, K409R (FEAR)) VH: EVQLVQSGAEVKKPGESLKISCKGSGYRFTSYWIGWVRQMPGKGLEWMGIIYPGDSDARYSPSFQGQVTISADKSISTAYLQWSSLKASDTGMYYCARSVLFDYWGQGTLVTVSS VL: AIQLTQSPSSLSASVGDRVTITCRASQGISSALAWYQQKPGKAPKLLIYDVSNLESGVPSRFSGSGSGTDFTLTISSLQPEDFATYYCQQFNSYPHTFGQGTKLEIK

>  <label value>
label 0

$$$$
>  <binder>
IgG1-5T4-076-FEAR (antibody, V domains shown, Monospecific, bivalent human IgG1 kappa with L234F, L235E, D265A, K409R (FEAR)) VH: QVQLVQSGAEVKKPGASVKVSCKASGYTFTSYGISWVRQAPGQGLEWMGWISAYNGNTNYAQKLQGRVTMTTDTSTRTAYMELRSLRSDDTAVYYCARDPGYFDWLYGDYWGQGTLVTVSS VL: AIQLTQSPSSLSASVGDRVTITCRASQGISSALAWYQQKPGKAPKLLIYDASSLESGVPSRFSGSGSGTDFTLTISSLQPEDFATYYCQQFNSYPRTFGQGTKVEIK

>  <label value>
label 1

$$$$
>  <binder>
IgG1-5T4-085-FEAR (antibody, V domains shown, Monospecific, bivalent human IgG1 kappa with L234F, L235E, D265A, K409R (FEAR)) VH: EVQLLESGGGLVQPGGSLRLSCAASGFTFSSYAMSWVRQAPGKGLEWVSAISGSGGSTYNADSVKGRFTIFRDNSKNTLYLHMNSLRAEDTAVYYCARDPGYNNVEYLDHWGQGTLVTVSS VL: AIQLTQSPSSLSASVGDRVTITCRASQGISSALAWYQQKPGKAPKLLIYDASSLESGVPSRFSGSGSGTDFTLTISSLQPEDFATYYCQQFNSYPLTFGGGTKVEIK

>  <label value>
label 1

$$$$
>  <binder>
IgG1-5T4-H8-FEAR (antibody, V domains shown, Based on 5T4 antibody H8 from Wyeth (WO 2007/106744); IgG1 with L234F, L235E, D265A, K409R (FEAR); also called IgG1-5T4-HS-FEAR; IgG1-5T4-H8-FEAR-FITC) VH: EVQLQQSGPDLVKPGASVKISCKASGYSFTGYYMHWVKQSHGKSLEWIGRINPNNGVTLYNQKFKDKAILTVDKSSTTAYMELRSLTSEDSAVYYCARSTMITNYVMDYWGQVTSVTVSS VL: SIVMTQTPTFLLVSAGDRVTITCKASQSVSNDVAWYQQKPGQSPTLLISYTSSRYAGVPDRFIGSGYGTDFTFTISTLQAEDLAVYFCQQDYNSPPTFGGGTKLEIK

>  <label value>
label 0

$$$$
